Measured L1 promoter activity values are reported for all entries that follow.
Test system: HepG2 (L1.3 5'UTR promoter firefly luciferase reporter)
Assay: L1 promoter activity (FLuc/RLuc) relative to DMSO vehicle control (% of control); higher = stronger L1 promoter activation
Settings: concentration (uM unless unit written): 1000; treatment time: 6 h
# output: bare number, no unit

As a guide, the following entries are already answered.
>>> print(df.to_string())
                                   compound         quantity_kind  recorded_number
0  CC(=O)Oc1ccccc1C(=O)O [Acetylsalicylic acid]  L1 promoter activity              107
1  NS(=O)(=O)c1cc(C(=O)O)c(NCc2ccco2)cc1Cl [Furosemide]  L1 promoter activity             89.1
2             CC(C)=CC(=O)C=C(C)C [Phorone]  L1 promoter activity              131
3  CC(C)(Oc1ccc(CCNC(=O)c2ccc(Cl)cc2)cc1)C(=O)O [Bezafibrate]  L1 promoter activity              174
4  CCOC(=O)C(C)(C)Oc1ccc(Cl)cc1 [Clofibrate]  L1 promoter activity              106
5  NS(=O)(=O)c1cc2c(cc1Cl)NC(C(Cl)Cl)NS2(=O)=O (configuration not stated) [Trichlormethiazide]  L1 promoter activity             99.7

Kindly note the recorded L1 promoter activity for COc1ccc2c(c1)c(CC(=O)O)c(C)n2C(=O)c1ccc(Cl)cc1 [Indometacin] , which is 67.2
